biological target: FRK (Homo sapiens, UniProt P42685); construct: purchased Eurofins DiscoverX KINOMEscan (scanTK); assay: KINOMEscan ScanTK; type: binding; settings: @1000nM, read-out: %Control
Sequence (P42685 whole entry): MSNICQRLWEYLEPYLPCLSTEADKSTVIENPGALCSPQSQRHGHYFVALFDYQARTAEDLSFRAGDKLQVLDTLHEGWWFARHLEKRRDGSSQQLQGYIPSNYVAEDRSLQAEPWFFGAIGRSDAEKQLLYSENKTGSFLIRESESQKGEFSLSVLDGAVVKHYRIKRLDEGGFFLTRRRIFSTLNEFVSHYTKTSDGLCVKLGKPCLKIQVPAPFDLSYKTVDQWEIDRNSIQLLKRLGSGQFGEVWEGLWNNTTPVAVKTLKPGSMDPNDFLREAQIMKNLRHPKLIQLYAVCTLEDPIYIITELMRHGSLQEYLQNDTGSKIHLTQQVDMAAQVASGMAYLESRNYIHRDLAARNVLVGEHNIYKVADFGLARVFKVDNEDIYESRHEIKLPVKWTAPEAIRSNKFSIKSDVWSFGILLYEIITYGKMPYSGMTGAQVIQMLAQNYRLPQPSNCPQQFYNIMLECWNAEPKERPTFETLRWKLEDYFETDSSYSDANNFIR
remaining binding at 1 µM under 50% gets satisfied, anything at or over 50% gets not satisfied.

Sample answers from the record:
CCOC(=O)c1cnc(S(C)(=O)=O)nc1N1CCC[C@@H](n2nc(-c3ccc(Oc4ccccc4)cc3)c3c(N)ncnc32)C1 :: not satisfied
CNC(=O)c1cnc(S(C)(=O)=O)nc1N1CCCC(n2nc(-c3ccc(Oc4ccccc4)cc3)c3c(N)ncnc32)C1 (centres unmarked) :: satisfied
C=CC(=O)N1CCC[C@@H](n2nc(-c3ccc(Oc4ccccc4)cc3)c3c(N)ncnc32)C1 [Compound 1g, Ibrutinib, reference compound] :: satisfied
Cc1cnc(S(C)(=O)=O)nc1N1CCCC(n2nc(-c3ccc(Oc4ccccc4)cc3)c3c(N)ncnc32)C1 (centres unmarked) :: satisfied

As a next step, examine the compound that follows.
[ask] API: query returns whether the compound falls strictly under 50% in remaining binding at 1 µM. Query: COC(=O)c1cnc(S(C)(=O)=O)nc1N1CCCC(n2nc(-c3ccc(Oc4ccccc4)cc3)c3c(N)ncnc32)C1 (centres unmarked)
[reply] not satisfied

----------
target: ABL1(T315I)-nonphosphorylated (Homo sapiens, UniProt P00519, T315I); construct: purchased Eurofins DiscoverX KINOMEscan (scanTK); assay: KINOMEscan ScanTK; type: binding; conditions: @1000nM
MEASUREMENT_LABEL: difference in % of control versus compound Ib at 1 µM (%)
Respond with the bare value in %.

COC(=O)c1cnc(S(C)(=O)=O)nc1N1CCCC(n2nc(-c3ccc(Oc4ccccc4)cc3)c3c(N)ncnc32)C1 (stereo not shown) :: -17
Cc1cnc(S(C)(=O)=O)nc1N1CCCC(n2nc(-c3ccc(Oc4ccccc4)cc3)c3c(N)ncnc32)C1 (stereo not shown) :: -11
CCOC(=O)c1cnc(S(C)(=O)=O)nc1N1CCC[C@@H](n2nc(-c3ccc(Oc4ccccc4)cc3)c3c(N)ncnc32)C1 :: -9

Continue with the next compound.
[ask] Recall the recorded difference in % of control versus compound Ib at 1 µM for CNC(=O)c1cnc(S(C)(=O)=O)nc1N1CCCC(n2nc(-c3ccc(Oc4ccccc4)cc3)c3c(N)ncnc32)C1 (stereo not shown) with ABL1(T315I)-nonphosphorylated (Homo sapiens, UniProt P00519, T315I) and state it.
[reply] -16

----------
molecular target: CTK (Homo sapiens); construct: purchased Eurofins DiscoverX KINOMEscan (scanTK); assay: KINOMEscan ScanTK; assay type: binding; settings: @1000nM
Sequence (P42679 whole entry): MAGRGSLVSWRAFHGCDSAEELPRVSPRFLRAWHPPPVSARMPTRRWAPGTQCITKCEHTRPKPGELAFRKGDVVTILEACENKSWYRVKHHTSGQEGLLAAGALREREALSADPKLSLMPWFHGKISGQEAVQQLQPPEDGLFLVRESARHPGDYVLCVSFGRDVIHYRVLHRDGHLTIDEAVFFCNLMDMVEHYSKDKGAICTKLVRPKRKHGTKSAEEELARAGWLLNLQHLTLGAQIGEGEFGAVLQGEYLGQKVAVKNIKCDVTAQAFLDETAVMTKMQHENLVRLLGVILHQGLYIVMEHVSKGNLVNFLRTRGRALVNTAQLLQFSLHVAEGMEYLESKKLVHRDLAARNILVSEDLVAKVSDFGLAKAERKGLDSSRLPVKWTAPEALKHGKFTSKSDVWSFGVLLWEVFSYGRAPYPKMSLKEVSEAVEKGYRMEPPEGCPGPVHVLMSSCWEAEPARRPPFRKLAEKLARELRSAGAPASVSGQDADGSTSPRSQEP
MEASUREMENT_LABEL: difference in %Control versus compound Ib at 1 µM (%)
Respond with the bare value in %.

CCOC(=O)c1cnc(S(C)(=O)=O)nc1N1CCC[C@@H](n2nc(-c3ccc(Oc4ccccc4)cc3)c3c(N)ncnc32)C1 [Compound 8c] :: -6
COC(=O)c1cnc(S(C)(=O)=O)nc1N1CCCC(n2nc(-c3ccc(Oc4ccccc4)cc3)c3c(N)ncnc32)C1 (stereo not shown) [Compound 8b] :: 8
Cc1cnc(S(C)(=O)=O)nc1N1CCCC(n2nc(-c3ccc(Oc4ccccc4)cc3)c3c(N)ncnc32)C1 (stereo not shown) [Compound 8a] :: -13

[ask] Entry CNC(=O)c1cnc(S(C)(=O)=O)nc1N1CCCC(n2nc(-c3ccc(Oc4ccccc4)cc3)c3c(N)ncnc32)C1 (stereo not shown) [Compound 8d] has what difference in %Control versus compound Ib at 1 µM?
[reply] -3

----------
target: TYK2(JH1domain-catalytic) (Homo sapiens, UniProt P29597); construct: TYK2(JH1domain-catalytic); purchased Eurofins DiscoverX KINOMEscan (scanTK); assay: KINOMEscan ScanTK; type: binding; details: read-out: %Control @1000nM
Sequence (P29597 888-1187 limits assumed): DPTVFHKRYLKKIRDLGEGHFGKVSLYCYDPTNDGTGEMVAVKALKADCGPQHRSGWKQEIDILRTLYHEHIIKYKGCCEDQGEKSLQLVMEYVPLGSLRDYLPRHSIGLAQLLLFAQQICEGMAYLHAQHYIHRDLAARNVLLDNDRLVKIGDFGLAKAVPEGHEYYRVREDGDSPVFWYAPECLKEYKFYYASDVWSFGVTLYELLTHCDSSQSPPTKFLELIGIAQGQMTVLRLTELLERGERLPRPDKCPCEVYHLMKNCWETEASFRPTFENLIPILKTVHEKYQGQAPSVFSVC
MEASUREMENT_LABEL: remaining binding at 1 µM (%)
Respond with the bare value in %.

Consider the worked cases shown below.
CCOC(=O)c1cnc(S(C)(=O)=O)nc1N1CCC[C@@H](n2nc(-c3ccc(Oc4ccccc4)cc3)c3c(N)ncnc32)C1 :: 100
Cc1cnc(S(C)(=O)=O)nc1N1CCCC(n2nc(-c3ccc(Oc4ccccc4)cc3)c3c(N)ncnc32)C1 (stereo not shown) :: 89
COC(=O)c1cnc(S(C)(=O)=O)nc1N1CCCC(n2nc(-c3ccc(Oc4ccccc4)cc3)c3c(N)ncnc32)C1 (stereo not shown) :: 95

Continue with the next compound.
[ask] Entry CNC(=O)c1cnc(S(C)(=O)=O)nc1N1CCCC(n2nc(-c3ccc(Oc4ccccc4)cc3)c3c(N)ncnc32)C1 (stereo not shown) has what remaining binding at 1 µM?
[reply] 100

----------
biological target: ERBB3 (Homo sapiens); construct: purchased Eurofins DiscoverX KINOMEscan (scanTK); assay: KINOMEscan ScanTK; assay type: binding; details: ERBB3; read-out: %Control @1000nM
Sequence (P21860 20-1342): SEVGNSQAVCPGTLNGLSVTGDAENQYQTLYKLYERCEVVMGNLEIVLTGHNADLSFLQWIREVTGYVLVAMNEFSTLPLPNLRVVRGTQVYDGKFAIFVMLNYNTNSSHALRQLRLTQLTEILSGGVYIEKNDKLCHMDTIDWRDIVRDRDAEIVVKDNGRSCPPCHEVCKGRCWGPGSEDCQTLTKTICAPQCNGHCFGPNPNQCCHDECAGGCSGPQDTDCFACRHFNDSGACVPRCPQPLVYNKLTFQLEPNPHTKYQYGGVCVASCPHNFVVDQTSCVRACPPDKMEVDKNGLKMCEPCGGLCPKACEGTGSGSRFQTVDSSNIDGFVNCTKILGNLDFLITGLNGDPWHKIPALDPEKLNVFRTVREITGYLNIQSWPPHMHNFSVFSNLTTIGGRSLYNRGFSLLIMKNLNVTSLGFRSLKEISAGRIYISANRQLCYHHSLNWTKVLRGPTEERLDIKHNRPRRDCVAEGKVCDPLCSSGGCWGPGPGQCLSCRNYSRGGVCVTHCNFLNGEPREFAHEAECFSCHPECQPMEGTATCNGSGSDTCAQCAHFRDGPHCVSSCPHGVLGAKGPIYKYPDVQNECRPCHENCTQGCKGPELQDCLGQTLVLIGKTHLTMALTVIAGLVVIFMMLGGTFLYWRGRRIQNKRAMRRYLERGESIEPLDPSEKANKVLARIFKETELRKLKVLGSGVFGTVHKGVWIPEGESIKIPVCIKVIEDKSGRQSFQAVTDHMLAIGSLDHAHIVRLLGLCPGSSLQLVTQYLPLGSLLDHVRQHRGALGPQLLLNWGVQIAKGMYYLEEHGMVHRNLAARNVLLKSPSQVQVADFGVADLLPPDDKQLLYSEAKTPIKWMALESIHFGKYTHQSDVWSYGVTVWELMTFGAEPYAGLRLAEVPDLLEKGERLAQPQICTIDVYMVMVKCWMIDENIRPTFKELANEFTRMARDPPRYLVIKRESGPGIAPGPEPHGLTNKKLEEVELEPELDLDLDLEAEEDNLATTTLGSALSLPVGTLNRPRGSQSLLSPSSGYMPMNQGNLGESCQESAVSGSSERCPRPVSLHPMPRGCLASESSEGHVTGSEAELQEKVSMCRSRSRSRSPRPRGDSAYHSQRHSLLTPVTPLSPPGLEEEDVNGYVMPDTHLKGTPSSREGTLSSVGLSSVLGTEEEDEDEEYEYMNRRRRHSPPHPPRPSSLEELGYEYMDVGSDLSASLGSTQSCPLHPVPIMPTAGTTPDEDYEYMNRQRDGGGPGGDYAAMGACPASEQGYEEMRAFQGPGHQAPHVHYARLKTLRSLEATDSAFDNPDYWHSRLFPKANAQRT
MEASUREMENT_LABEL: remaining binding at 1 µM

Consider the worked cases shown below.
CCOC(=O)c1cnc(S(C)(=O)=O)nc1N1CCC[C@@H](n2nc(-c3ccc(Oc4ccccc4)cc3)c3c(N)ncnc32)C1 :: 39%
CNC(=O)c1cnc(S(C)(=O)=O)nc1N1CCCC(n2nc(-c3ccc(Oc4ccccc4)cc3)c3c(N)ncnc32)C1 (centres unmarked) :: 8.9%
C=CC(=O)N1CCC[C@@H](n2nc(-c3ccc(Oc4ccccc4)cc3)c3c(N)ncnc32)C1 [Compound 1g, Ibrutinib, reference compound] :: 0%

[ask] Entry COC(=O)c1cnc(S(C)(=O)=O)nc1N1CCCC(n2nc(-c3ccc(Oc4ccccc4)cc3)c3c(N)ncnc32)C1 (centres unmarked) has what remaining binding at 1 µM?
[reply] 2.3%

[ask] Entry Cc1cnc(S(C)(=O)=O)nc1N1CCCC(n2nc(-c3ccc(Oc4ccccc4)cc3)c3c(N)ncnc32)C1 (centres unmarked) has what remaining binding at 1 µM?
[reply] 0%

----------
Each record here notes measured difference in %Control relative to compound Ib at 1 µM.
target: BRK (Homo sapiens, UniProt Q13882); construct: purchased Eurofins DiscoverX KINOMEscan (scanTK); assay: KINOMEscan ScanTK; assay type: binding; details: @1000nM
Sequence (Q13882 whole entry): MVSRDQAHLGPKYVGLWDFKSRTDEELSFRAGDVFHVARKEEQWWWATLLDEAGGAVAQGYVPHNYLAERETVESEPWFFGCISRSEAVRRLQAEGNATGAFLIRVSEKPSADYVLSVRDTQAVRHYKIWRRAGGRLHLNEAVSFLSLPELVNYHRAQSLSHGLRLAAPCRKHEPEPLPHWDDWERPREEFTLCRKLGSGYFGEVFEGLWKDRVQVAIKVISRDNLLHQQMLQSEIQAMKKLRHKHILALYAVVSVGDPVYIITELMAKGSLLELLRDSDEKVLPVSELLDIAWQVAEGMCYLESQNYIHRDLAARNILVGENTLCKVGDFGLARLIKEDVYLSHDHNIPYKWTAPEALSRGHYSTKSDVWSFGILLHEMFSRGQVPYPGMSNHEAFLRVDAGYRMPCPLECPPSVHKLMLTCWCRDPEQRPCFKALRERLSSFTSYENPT
Respond with the bare value in %.

Consider the worked cases shown below.
CCOC(=O)c1cnc(S(C)(=O)=O)nc1N1CCC[C@@H](n2nc(-c3ccc(Oc4ccccc4)cc3)c3c(N)ncnc32)C1 :: 52.7
Cc1cnc(S(C)(=O)=O)nc1N1CCCC(n2nc(-c3ccc(Oc4ccccc4)cc3)c3c(N)ncnc32)C1 (stereo not shown) :: 13.7
COC(=O)c1cnc(S(C)(=O)=O)nc1N1CCCC(n2nc(-c3ccc(Oc4ccccc4)cc3)c3c(N)ncnc32)C1 (stereo not shown) :: 40.7

Continue with the next compound.
[ask] Recall the recorded difference in %Control relative to compound Ib at 1 µM for CNC(=O)c1cnc(S(C)(=O)=O)nc1N1CCCC(n2nc(-c3ccc(Oc4ccccc4)cc3)c3c(N)ncnc32)C1 (stereo not shown) with BRK (Homo sapiens, UniProt Q13882) and state it.
[reply] 13.7

----------
biological target: TRKA (Homo sapiens, UniProt P04629); construct: purchased Eurofins DiscoverX KINOMEscan (scanTK); experiment: KINOMEscan ScanTK; type: binding; conditions: TRKA; read-out: %Control @1000nM
Sequence (P04629 33-796): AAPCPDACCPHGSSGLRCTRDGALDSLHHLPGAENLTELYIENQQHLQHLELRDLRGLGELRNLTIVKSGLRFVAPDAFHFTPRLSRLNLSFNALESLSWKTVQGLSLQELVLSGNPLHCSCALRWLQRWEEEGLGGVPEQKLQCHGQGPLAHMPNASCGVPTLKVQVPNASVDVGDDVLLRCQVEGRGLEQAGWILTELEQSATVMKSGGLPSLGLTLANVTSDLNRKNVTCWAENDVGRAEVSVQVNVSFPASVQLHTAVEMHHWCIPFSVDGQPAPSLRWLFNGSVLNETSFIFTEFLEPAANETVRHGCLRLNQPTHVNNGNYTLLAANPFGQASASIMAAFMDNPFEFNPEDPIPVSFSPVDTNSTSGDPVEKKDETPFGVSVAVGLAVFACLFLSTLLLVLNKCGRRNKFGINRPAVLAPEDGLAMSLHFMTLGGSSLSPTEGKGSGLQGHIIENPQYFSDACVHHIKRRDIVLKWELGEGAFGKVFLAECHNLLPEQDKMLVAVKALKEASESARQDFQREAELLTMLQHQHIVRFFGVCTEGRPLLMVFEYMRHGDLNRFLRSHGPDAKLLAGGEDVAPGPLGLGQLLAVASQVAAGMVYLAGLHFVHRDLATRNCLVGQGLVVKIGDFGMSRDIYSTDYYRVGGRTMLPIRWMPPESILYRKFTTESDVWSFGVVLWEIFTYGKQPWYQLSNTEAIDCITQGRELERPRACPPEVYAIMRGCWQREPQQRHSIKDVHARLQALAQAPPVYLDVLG
MEASUREMENT_LABEL: remaining binding at 1 µM (%)
Respond with the bare value in %.

Consider the worked cases shown below.
CCOC(=O)c1cnc(S(C)(=O)=O)nc1N1CCC[C@@H](n2nc(-c3ccc(Oc4ccccc4)cc3)c3c(N)ncnc32)C1 :: 93
COC(=O)c1cnc(S(C)(=O)=O)nc1N1CCCC(n2nc(-c3ccc(Oc4ccccc4)cc3)c3c(N)ncnc32)C1 (stereo not shown) :: 89
CNC(=O)c1cnc(S(C)(=O)=O)nc1N1CCCC(n2nc(-c3ccc(Oc4ccccc4)cc3)c3c(N)ncnc32)C1 (stereo not shown) :: 83

Continue with the next compound.
[ask] Entry Cc1cnc(S(C)(=O)=O)nc1N1CCCC(n2nc(-c3ccc(Oc4ccccc4)cc3)c3c(N)ncnc32)C1 (stereo not shown) has what remaining binding at 1 µM?
[reply] 97

----------
target: FGFR4 (Homo sapiens); construct: purchased Eurofins DiscoverX KINOMEscan (scanTK); experiment: KINOMEscan ScanTK; format: binding; settings: read-out: %Control @1000nM
Sequence (P22455 22-802): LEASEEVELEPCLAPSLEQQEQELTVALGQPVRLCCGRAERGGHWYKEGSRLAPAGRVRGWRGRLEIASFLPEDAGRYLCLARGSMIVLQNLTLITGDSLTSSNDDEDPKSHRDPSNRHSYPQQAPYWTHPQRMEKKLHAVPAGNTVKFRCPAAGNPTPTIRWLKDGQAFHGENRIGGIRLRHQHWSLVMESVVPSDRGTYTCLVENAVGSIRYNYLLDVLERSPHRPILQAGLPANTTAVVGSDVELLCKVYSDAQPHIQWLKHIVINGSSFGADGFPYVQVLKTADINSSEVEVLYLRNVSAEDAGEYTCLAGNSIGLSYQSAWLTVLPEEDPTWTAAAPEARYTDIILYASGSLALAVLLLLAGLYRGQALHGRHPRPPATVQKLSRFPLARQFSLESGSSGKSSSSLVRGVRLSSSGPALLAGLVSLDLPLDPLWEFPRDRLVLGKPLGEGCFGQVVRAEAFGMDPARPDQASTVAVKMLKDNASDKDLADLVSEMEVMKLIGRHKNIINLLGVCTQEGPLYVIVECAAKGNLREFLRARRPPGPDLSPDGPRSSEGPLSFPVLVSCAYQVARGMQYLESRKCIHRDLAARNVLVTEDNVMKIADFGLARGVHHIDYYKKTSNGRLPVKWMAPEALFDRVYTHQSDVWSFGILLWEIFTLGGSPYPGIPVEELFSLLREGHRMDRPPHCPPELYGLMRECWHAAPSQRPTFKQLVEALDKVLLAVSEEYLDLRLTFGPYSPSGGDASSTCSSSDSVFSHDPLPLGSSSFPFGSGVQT
Each record here notes measured remaining binding at 1 µM.
Respond with the bare value in %.

Consider the worked cases shown below.
Cc1cnc(S(C)(=O)=O)nc1N1CCCC(n2nc(-c3ccc(Oc4ccccc4)cc3)c3c(N)ncnc32)C1 (centres unmarked) :: 97
COC(=O)c1cnc(S(C)(=O)=O)nc1N1CCCC(n2nc(-c3ccc(Oc4ccccc4)cc3)c3c(N)ncnc32)C1 (centres unmarked) :: 92
CCOC(=O)c1cnc(S(C)(=O)=O)nc1N1CCC[C@@H](n2nc(-c3ccc(Oc4ccccc4)cc3)c3c(N)ncnc32)C1 :: 91
C=CC(=O)N1CCC[C@@H](n2nc(-c3ccc(Oc4ccccc4)cc3)c3c(N)ncnc32)C1 [Compound 1g, Ibrutinib, reference compound] :: 96

Continue with the next compound.
[ask] Entry CNC(=O)c1cnc(S(C)(=O)=O)nc1N1CCCC(n2nc(-c3ccc(Oc4ccccc4)cc3)c3c(N)ncnc32)C1 (centres unmarked) has what remaining binding at 1 µM?
[reply] 100

These data points were gathered from paper PMC11345841.
